B1: library; a variant is named by its letters at N, in order (parent)
chain: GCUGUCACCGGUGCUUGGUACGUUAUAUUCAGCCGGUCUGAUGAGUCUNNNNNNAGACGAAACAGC

variants of: B1; experiment: FACS-Seq fitted mean relative fluorescence mCherry/BFP with ligand (log10 relative fluorescence); HEK293T overexpressing SLC46A1; ligand concentration (+) FACS-Seq: 6 mM; higher = higher reporter protein expression; details: with (6R,S)-folinic acid; ligand present: yes
measure: FACS-Seq fitted mean (log10)
A bare number is all that is needed in reply.

See these solved cases before continuing.
INPUT: For the variant shown here, GCUGUCACCGGUGCUUGGUACGUUAUAUUCAGCCGGUCUGAUGAGUCUGAAUCGAGACGAAACAGC , give the reported FACS-Seq fitted mean (log10).
OUTPUT: 0.372

INPUT: Recorded FACS-Seq fitted mean (log10) of GCUGUCACCGGUGCUUGGUACGUUAUAUUCAGCCGGUCUGAUGAGUCUCCAGUGAGACGAAACAGC , please.
OUTPUT: 0.251

INPUT: I'd like to know its FACS-Seq fitted mean (log10). The variant in question is GCUGUCACCGGUGCUUGGUACGUUAUAUUCAGCCGGUCUGAUGAGUCUUUUUUGAGACGAAACAGC
OUTPUT: 0.176

INPUT: // query FACS-Seq fitted mean (log10) value for entry GCUGUCACCGGUGCUUGGUACGUUAUAUUCAGCCGGUCUGAUGAGUCUUAACCAAGACGAAACAGC
OUTPUT: 0.274

// below: FACS-Seq fitted mean (log10) requested for another variant
INPUT: Look up FACS-Seq fitted mean (log10): GCUGUCACCGGUGCUUGGUACGUUAUAUUCAGCCGGUCUGAUGAGUCUUAGUGCAGACGAAACAGC
OUTPUT: 0.493
